Origin of values: ChEMBL document CHEMBL4513216

The following compounds are shown together with reported INHIBITION values.
Test system: Plasmodium berghei
PROTOCOL_SUMMARY: Screen against P. berghei liver stage (PbLuc), transformed with Luciferase, at 10uM
Assay type: functional, HepG2
SETTINGS: tested at 10 uM
Out of some 69,000 compounds screened, about 8,600 (12%) showed an effect of 50% or more. The list comes from a sample in which strong results are over-represented; it also holds close analogues and randomly drawn compounds.
Please format your answer as a value with the unit trailing.

// solved cases for INHIBITION follow
COMPOUND | TARGET | MEASURE_NAME | EXPERIMENTAL_VALUE
c1cnc(N2CCN(CCn3ccnc3-c3ccncc3)CC2)nc1 | Plasmodium berghei | INHIBITION | 50.5%
CCOCCn1nc(C)cc1C(=O)N1CC[C@@](O)(COC)C(C)(C)C1 | Plasmodium berghei | INHIBITION | 16.2%
COC[C@]1(O)CCN(C(=O)c2ccc(CN(C)C)o2)CC1(C)C | Plasmodium berghei | INHIBITION | 76.5%

# INHIBITION measured on Plasmodium berghei for item NC(=O)COc1ccc(CN2CCC(O)(CN3CCCCC3)C2)cc1Cl (centres undefined) = 50.5%
